Every entry's value here was drawn from patent US20250346587A1.

# assayText: Kinetic solubility assay (nephelometry)
# conditionParameters: PBS, 37 °C, pH 7.4, aqueous buffer, kinetic from dmso stock
// Not satisfied strictly below 40 µM in solubility kinetic at 1 h; Satisfied otherwise

Task item: Does solubility kinetic at 1 h meet or surpass 40 µM for `N#Cc1cnc(Nc2cc(-c3ccccc3OCCCCN)on2)cn1` ?
Reply: Satisfied

Task item: Does solubility kinetic at 1 h meet or surpass 40 µM for `N#Cc1cnc(Nc2cc(-c3ccccc3OC3CNC3)on2)cn1` ?
Reply: Satisfied

New cases:
Task item: Does solubility kinetic at 1 h meet or surpass 40 µM for N#Cc1cnc(Nc2cc(-c3ccccc3OC3CC(N)C3)on2)cn1 (centres unmarked) ?
Reply: Not satisfied

###

I'd be grateful if you could share measured inhibition at 0.03 µM for these entries.
# subjectOfTest: CHK-1 kinase (Homo sapiens (Human))
# assayText: CHK-1 % inhibition kinase assay (TR-FRET)
# Type: biochemical
# conditionParameters: CHK1 enzyme, compound 30 nM, ATP 15 μM

Task item: Which inhibition at 0.03 µM is listed for N#Cc1cnc(Nc2cc(-c3cc4ccccc4cc3OCC3CCNC3)[nH]n2)cn1 (stereo not shown) [Compound 2.4] ?
Reply: 70%

Task item: Which inhibition at 0.03 µM is listed for N#Cc1cnc(Nc2cc(-c3ccccc3OC3CC(N)C3)on2)cn1 (stereo not shown) [Compound 1.20] ?
Reply: 60.2%

// for each molecule below, give its inhibition at 0.03 µM
1. COc1cc(C2=CCN(C)CC2)ccc1-c1cc(Nc2cnc(C#N)cn2)on1 [Compound 1.22]
2. N#Cc1cnc(Nc2cc(-c3cc4ccccc4cc3OCCCN)[nH]n2)cn1 [Compound 2.7]
3. CCC(C)N1CC(Oc2ccccc2-c2cc(Nc3cnc(C#N)cn3)no2)C1 (stereo not shown) [Compound 1.18]
4. N#Cc1cnc(Nc2cc(-c3ccccc3OCC3CCNCC3)on2)cn1 [Compound 1.2]

Reply:
1: 13.7%; 2: 95%; 3: 4%; 4: 36%

Task item: Which inhibition at 0.03 µM is listed for N#Cc1cnc(Nc2cc(-c3ccccc3OCC3CNC3)on2)cn1 [Compound 1.17] ?
Reply: 69%

###

I'd be grateful if you could share measured recovery at 120 min for these entries.
# assayText: Caco-2 cell permeability assay
# Format: in vitro ADME
# conditionParameters: human, Caco-2, pH 7.4, Caco-2, solution recovery, A to B; read-out: Recovery % A to B
One number for each entry, in %.

Recorded recovery at 120 min, per entry:
Task item: Which recovery at 120 min is listed for N#Cc1cnc(Nc2cc(-c3ccccc3OCC3CCCNC3)on2)cn1 (stereo not drawn) [Compound 1.3] ?
Reply: 54.7

Task item: Which recovery at 120 min is listed for N#Cc1cnc(Nc2cc(-c3ccccc3OCC3CNCCO3)on2)cn1 (stereo not drawn) [Compound 1.1] ?
Reply: 69

Now let's try a different one.
Task item: Which recovery at 120 min is listed for N#Cc1cnc(Nc2cc(-c3ccccc3OCC3CCNCC3)on2)cn1 [Compound 1.2] ?
Reply: 67.7

###

# assayText: Microsomal stability assay, human liver microsome
# Assay type: in vitro ADME
# conditionParameters: liver microsomes, pH 7.4, 0.2 mg/mL, 1 μM compound, 37° C., read-out: Clint HLM
// 0 strictly below 100 µL/min/mg in microsomal CLint at 1 μM; 1 otherwise

Task item: Does microsomal CLint at 1 μM meet or surpass 100 µL/min/mg for CN1CCCC(COc2ccccc2-c2cc(Nc3cnc(C#N)cn3)no2)C1 (stereo not drawn) ?
Reply: 1

Task item: Does microsomal CLint at 1 μM meet or surpass 100 µL/min/mg for CCC(C)N1CC(Oc2ccccc2-c2cc(Nc3cnc(C#N)cn3)no2)C1 (stereo not drawn) ?
Reply: 1

Task item: Does microsomal CLint at 1 μM meet or surpass 100 µL/min/mg for `N#Cc1cnc(Nc2cc(-c3ccccc3OCCN)on2)cn1` ?
Reply: 0

Task item: Does microsomal CLint at 1 μM meet or surpass 100 µL/min/mg for `CN1CC(Oc2ccccc2-c2cc(Nc3cnc(C#N)cn3)no2)C1` ?
Reply: 0

New cases:
Task item: Does microsomal CLint at 1 μM meet or surpass 100 µL/min/mg for `CC(C)N1CC(Oc2ccccc2-c2cc(Nc3cnc(C#N)cn3)no2)C1` ?
Reply: 0

Task item: Does microsomal CLint at 1 μM meet or surpass 100 µL/min/mg for `COc1ccccc1-c1cc(Nc2cnc(C#N)cn2)no1` ?
Reply: 1

###

# subjectOfTest: CHK-1 kinase (Homo sapiens (Human), UniProt O14757)
# Sequence (O14757 whole entry): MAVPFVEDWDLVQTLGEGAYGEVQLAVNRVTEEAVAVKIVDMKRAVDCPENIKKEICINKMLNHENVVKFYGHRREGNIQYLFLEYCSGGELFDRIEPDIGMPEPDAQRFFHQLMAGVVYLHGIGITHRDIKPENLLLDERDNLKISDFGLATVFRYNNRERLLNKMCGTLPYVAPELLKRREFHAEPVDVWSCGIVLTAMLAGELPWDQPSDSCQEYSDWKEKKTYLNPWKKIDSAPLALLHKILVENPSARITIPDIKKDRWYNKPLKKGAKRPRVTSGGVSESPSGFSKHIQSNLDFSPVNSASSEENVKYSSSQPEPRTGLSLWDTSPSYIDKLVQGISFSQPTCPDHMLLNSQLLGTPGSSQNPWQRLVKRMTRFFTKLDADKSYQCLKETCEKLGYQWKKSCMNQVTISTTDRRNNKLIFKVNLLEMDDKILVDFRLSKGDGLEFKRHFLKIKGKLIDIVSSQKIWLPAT
# assayText: CHK-1 % inhibition kinase assay (TR-FRET)
# Type: biochemical
# conditionParameters: CHK1 enzyme, compound 30 nM, ATP 15 μM
measureName: inhibition at 0.03 µM (%)
Give bare numbers, in %.

Task item: Which inhibition at 0.03 µM is listed for N#Cc1cnc(Nc2cc(-c3ccccc3OCC3CCCNC3)on2)cn1 (stereo not drawn) ?
Reply: 50

Task item: Which inhibition at 0.03 µM is listed for `COc1cc(C2=CCNCC2)ccc1-c1cc(Nc2cnc(C#N)cn2)on1` ?
Reply: 33

Task item: Which inhibition at 0.03 µM is listed for N#Cc1cnc(Nc2cc(-c3cc4ccccc4cc3OCC3CCCNC3)[nH]n2)cn1 (stereo not drawn) ?
Reply: 72

// for each molecule below, give its inhibition at 0.03 µM
1. N#Cc1cnc(Nc2cc(-c3ccccc3OC3CC4(CNC4)C3)on2)cn1
2. CC(C)N1CC(Oc2ccccc2-c2cc(Nc3cnc(C#N)cn3)no2)C1
3. N#Cc1cnc(Nc2cc(-c3ccccc3OC3CCNC3)on2)cn1 (stereo not drawn)

Reply:
1. 78.7
2. 15
3. 37

###

# assayText: Microsomal stability assay, mouse liver microsome
# Assay type: in vitro ADME
# conditionParameters: liver microsomes, pH 7.4, 0.2 mg/mL, 1 μM compound, 37° C., read-out: Clint MLM
measureName: microsomal CLint at 1 μM (µL/min/mg)
Answers are plain numbers, in µL/min/mg.

Recorded microsomal CLint at 1 μM, per entry:
Task item: Which microsomal CLint at 1 μM is listed for CN1CCCC(COc2ccccc2-c2cc(Nc3cnc(C#N)cn3)no2)C1 (stereo not drawn) [Compound 1.16] ?
Reply: 141

Task item: Which microsomal CLint at 1 μM is listed for N#Cc1cnc(Nc2cc(-c3ccccc3OCCCN)on2)cn1 [Compound 1.5] ?
Reply: 77

Task item: Which microsomal CLint at 1 μM is listed for CCC(C)N1CC(Oc2ccccc2-c2cc(Nc3cnc(C#N)cn3)no2)C1 (stereo not drawn) [Compound 1.18] ?
Reply: 297

Task item: Which microsomal CLint at 1 μM is listed for N#Cc1cnc(Nc2cc(-c3cc4ccccc4cc3OCC3CNC3)[nH]n2)cn1 [Compound 2.2] ?
Reply: 153

Task item: Which microsomal CLint at 1 μM is listed for N#Cc1cnc(Nc2cc(-c3cc4ccccc4cc3OCCN)[nH]n2)cn1 [Compound 2.6] ?
Reply: 153

Task item: Which microsomal CLint at 1 μM is listed for N#Cc1cnc(Nc2cc(-c3ccccc3OCC3CCNC3)on2)cn1 (stereo not drawn) [Compound 1.23] ?
Reply: 52

Task item: Which microsomal CLint at 1 μM is listed for N#Cc1cnc(Nc2cc(-c3ccccc3OCC3CCCNC3)on2)cn1 (stereo not drawn) [Compound 1.3] ?
Reply: 68

Task item: Which microsomal CLint at 1 μM is listed for N#Cc1cnc(Nc2cc(-c3cc4ccccc4cc3OCC3CCNCC3)[nH]n2)cn1 [Compound 2.1] ?
Reply: 101

Task item: Which microsomal CLint at 1 μM is listed for COc1ccccc1-c1cc(Nc2cnc(C#N)cn2)no1 [Compound 1.11] ?
Reply: 382

Task item: Which microsomal CLint at 1 μM is listed for CC(C)CC(C)N1CC(Oc2ccccc2-c2cc(Nc3cnc(C#N)cn3)no2)C1 (stereo not drawn) [Compound 1.12] ?
Reply: 473

// for each compound below, give its microsomal CLint at 1 μM
1. N#Cc1cnc(Nc2cc(-c3ccccc3OC3CC4(CNC4)C3)on2)cn1 [Compound 1.21]
2. N#Cc1cnc(Nc2cc(-c3ccccc3OCCN)on2)cn1 [Compound 1.7]
3. N#Cc1cnc(Nc2cc(-c3ccccc3OCCCCN)on2)cn1 [Compound 1.6]
4. N#Cc1cnc(Nc2cc(-c3cc4ccccc4cc3OCC3CCNC3)[nH]n2)cn1 (stereo not drawn) [Compound 2.4]
5. CC(C)N1CC(Oc2ccccc2-c2cc(Nc3cnc(C#N)cn3)no2)C1 [Compound 1.13]
6. COc1cc(C2=CCN(C)CC2)ccc1-c1cc(Nc2cnc(C#N)cn2)on1 [Compound 1.22]
7. CN1CCOC(COc2ccccc2-c2cc(Nc3cnc(C#N)cn3)no2)C1 (stereo not drawn) [Compound 1.8]
8. N#Cc1cnc(Nc2cc(-c3ccccc3OC3CCNC3)on2)cn1 (stereo not drawn) [Compound 1.14]

Reply:
1. 18
2. 114
3. 63
4. 142
5. 221
6. 313
7. 481
8. 56
